Provide the reported GI50 of each item.
System: RXF 393
Assay Protocol: NCI tumour cell line growth inhibition, 48 h
Calls of active or inactive are those of the source. Cut-off read from the data, not from the text of the source: active = GI50 up to about 1.1 µM and inactive = higher.

CCCCCC(/C=C/[C@@H]1CC(=O)C[C@H]1O[Si](C)(C)C(C)(C)C)OCOCCOC (stereo not given in full) ... 2.24 µM (inactive)

Quick one: give me GI50 for each item below, same order please.
1. CCOP(=O)(C/C=C/Cn1nc(Br)c(=O)[nH]c1=O)OCC
2. Cn1c(NNc2ccccc2)cc(=O)[nH]c1=O
3. CCOC(=O)N1CCN(C=S)CC1
4. CCCCC1=NNC(=O)C1

Reply:
> 100 µM (inactive)
61.8 µM (inactive)
> 100 µM (inactive)
> 100 µM (inactive)

* * *

System: SK-MEL-28
Assay Protocol: NCI tumour cell line growth inhibition, 48 h
The source made the active and inactive calls. Rule as the data show it: active = GI50 up to about 1.1 µM and inactive = higher.
Provide the reported GI50 of each item.

Recorded GI50, per entry:
N=c1nc2n(cc1F)[C@@H]1O[C@H](CO)[C@@H](O)[C@@H]1O2 ... > 63.7 µM (inactive)
CN(C)C1COC2Cc3ccccc3C1O2 (stereo not drawn) ... > 100 µM (inactive)
Cc1ccc(/C(Cl)=C/C=C(C#N)C#N)cc1 ... 2.14 µM (inactive)
COC(=O)c1ccccc1CC1Cc2cccc(C)c2C1=O (stereo not drawn) ... 32.5 µM (inactive)
CCc1nc(N)c2nc(-c3ccc(C#N)cc3)oc2n1 ... > 100 µM (inactive)

Quick one: give me GI50 for each item below, same order please.
1. Cc1ccccc1CN1CC2=C(CCN(Cc3ccccc3)C2=O)N2CCN=C12
2. CC(=O)OCC1OC(N2C(=O)C(=O)c3cc(C)ccc32)C(OC(C)=O)C(OC(C)=O)C1OC(C)=O (stereo not drawn)

Reply:
1: 29.2 µM (inactive); 2: 32.5 µM (inactive)

Quick one: give me GI50 for each item below, same order please.
1. COc1ccc(/C=C/C(=O)OC2CC34CCNC35CC(OC5(OC)C2OC)c2ccc(OC)c(O)c24)cc1O (stereo not drawn)
2. CCOc1ccccc1NC(=O)CCc1nnc(S)[nH]1
3. CS/C1=C(\c2ccc(C)cc2)N(c2ccccc2)C(=O)C(=O)N(c2ccccc2)/C(c2ccc(C)cc2)=C(/SC)SS1
4. C=CCc1cc(OC)c2c(c1)C(O)CC(c1ccccc1)O2 (stereo not drawn)
5. CC1CN(c2ccc(Cl)cc2)CC(C)(C)OC(=O)O1 (stereo not drawn)
6. CSc1nncc2[nH]c(C)nc12

Reply:
["79.4 µM (inactive)", "> 100 µM (inactive)", "> 100 µM (inactive)", "> 100 µM (inactive)", "> 100 µM (inactive)", "> 100 µM (inactive)"]

Quick one: give me GI50 for each item below, same order please.
1. O=C(O)CCS/C(=C\C(SCCC(=O)O)c1ccc(Cl)cc1)c1ccc(Cl)cc1 (stereo not drawn)
2. C(=N\c1ccc(-c2nc3ccccc3[nH]2)cc1)/c1cccs1

Reply:
45.1 µM (inactive)
> 100 µM (inactive)

Quick one: give me GI50 for each item below, same order please.
1. Cc1cc(C)c2c(=O)n(CN3CC4Nc5ccccc5C4C3)sc2n1 (stereo not drawn)
2. CCOC(=O)/C(=C\c1ccc[nH]1)C(=O)c1ccccc1

Reply:
1. 22.1 µM (inactive)
2. > 100 µM (inactive)

Quick one: give me GI50 for each item below, same order please.
1. Cc1nc(-c2nc(C)c(C(=O)/C=C/c3ccc([N+](=O)[O-])cc3)s2)sc1C(=O)/C=C/c1ccc([N+](=O)[O-])cc1
2. O=C(/C=C/c1ccccc1O)/C=C/c1ccccc1O
3. CCc1nnc(CC)n1-n1c(Cc2ccccc2)n[nH]c1=O
4. COc1cc(/C=C2\C(=O)N(c3cccc([N+](=O)[O-])c3)C(c3ccccc3)S2(=O)=O)cc(OC)c1OC (stereo not drawn)

Reply:
1. > 100 µM (inactive)
2. 1.81 µM (inactive)
3. > 100 µM (inactive)
4. > 100 µM (inactive)

Quick one: give me GI50 for each item below, same order please.
1. Nc1ccc(N)c2c1C(=O)c1ccccc1C2=O
2. CC(C)(C)COC1C2(OCCO2)C2CCC1(C)C2(C)C (stereo not drawn)
3. CCCCSC1=N/C(=C\c2ccc(N(C)C)cc2)C(=O)N1
4. O=C(CCCCCCCCCCc1ccccc1)c1c(O)cccc1O
5. CCOC(=O)C(Cl)(NC(=O)OCc1ccccc1)C(F)(F)F (stereo not drawn)
6. NCc1ccccc1C1CSCSC1
7. CC(C)(C)C(=O)C(C(c1ccccc1)N1CCOCC1)N1CCOCC1 (stereo not drawn)

Reply:
> 100 µM (inactive)
87.1 µM (inactive)
61.9 µM (inactive)
20 µM (inactive)
> 100 µM (inactive)
> 100 µM (inactive)
> 100 µM (inactive)

Quick one: give me GI50 for each item below, same order please.
1. O=C(/C=C/c1ccccc1Cl)c1ccc(Cl)cc1Cl
2. C=CCN1C(=O)/C(=C/c2ccco2)N=C1SC1OC(COC(C)=O)C(OC(C)=O)C(OC(C)=O)C1OC(C)=O (stereo not drawn)
3. CN1CN(c2ccccc2)C2(CCN(Cc3nc4ccccc4s3)CC2)C1=O
4. NS(=O)(=O)c1ccc(/N=N/c2cc3ccccc3c(C(=O)O)c2O)cc1
5. CCOC(=O)N1CCN(C=S)CC1
6. Nc1ncnc2c1ncn2C1C=C(CO)C(O)C1O (stereo not drawn)
7. O=C(CC1(O)C(=O)Nc2ccccc21)c1ccc2ccccc2c1 (stereo not drawn)

Reply:
11.6 µM (inactive)
> 100 µM (inactive)
17.3 µM (inactive)
> 60.1 µM (inactive)
> 100 µM (inactive)
1.23 µM (inactive)
> 100 µM (inactive)

Quick one: give me GI50 for each item below, same order please.
1. COC(=O)c1c[nH]cc1CCCCc1c[nH]cc1C(=O)OC
2. Clc1ncnc2c1ncn2CCCCCCCCCCCCn1cnc2c(Cl)ncnc21

Reply:
> 100 µM (inactive)
2.6 µM (inactive)

* * *

Tested on: DU-145
Assay Protocol: NCI tumour cell line growth inhibition, 48 h
Activity calls are given as the source filed them. Cut-off read from the data, not from the text of the source: active = GI50 up to about 1.1 µM and inactive = higher.
Recorded Metric: GI50

CCCC1NC(=O)C(CC(C)C)NC(=O)c2cccc(n2)C(=O)NC(CC(C)C)C(=O)NC(CCC)C(=O)NC(C(=O)OC)CCCCNC1=O (stereo not drawn) ... > 100 µM (inactive)
C=CC(C)(C)/C=C/c1ccc(O)cc1 ... 40.4 µM (inactive)

Let's switch to this compound now.
Task item: GET /values?readout=GI50&item= CC1(C)C2CC3C4CC5(Nc6ccccc6C5N41)[C@]3(C)CC2=O (stereo partly drawn)
Reply: > 50 µM (inactive)

* * *

Provide the reported GI50 of each item.
Tested on: A498
Assay Protocol: NCI tumour cell line growth inhibition, 48 h
Activity calls are given as the source filed them. Cut-off read from the data, not from the text of the source: active = GI50 up to about 1.1 µM and inactive = higher.

Recorded GI50, per entry:
COc1ccc2ccccc2c1C1NC(=O)c2ccccc2N1 (stereo not drawn) ... 1.3 µM (inactive)
CCOC(=O)c1nc2ccc(C(F)(F)F)cc2nc1Oc1ccc(C(=O)OC)cc1 ... > 100 µM (inactive)

Let's switch to this compound now.
Task item: GET /values?readout=GI50&item= `Cc1nc(-c2nc(C)c(C(=O)/C=C/c3ccc([N+](=O)[O-])cc3)s2)sc1C(=O)/C=C/c1ccc([N+](=O)[O-])cc1`
Reply: > 100 µM (inactive)

* * *

Test system: IGROV-1
Assay Protocol: NCI tumour cell line growth inhibition, 48 h
The source made the active and inactive calls. Cut-off read from the data, not from the text of the source: active = GI50 up to about 1.1 µM and inactive = higher.
Pick one: active, inactive

Consider the worked cases shown below.
CCOC(=O)n1ccc2c(C(=O)OC)c(C(=O)OC)cc(/C(=C/C(=O)OC)C(=O)OC)c21 ... inactive
O=C(CNCc1ccccc1)Oc1c(Cl)c(Cl)c(Cl)c(Cl)c1Cl ... inactive

Task item: Tell me the assay call for `COC(=O)CCCC1(CCCC(=O)OC)CCCCCCCCC(CCCC(=O)OC)(CCCC(=O)OC)C(=O)C1=O` please.
Reply: inactive

Task item: Tell me the assay call for `O=C(OCCN=C1c2ccccc2CCc2ccccc21)c1ccccc1` please.
Reply: inactive

* * *

Test system: K562
Assay Protocol: NCI tumour cell line growth inhibition, 48 h
The source made the active and inactive calls. No stated cut-off is given here; in the data, active = GI50 up to about 1.1 µM and inactive = higher.
Pick one: y for active, n for inactive

Consider the worked cases shown below.
Nc1ccc(N)c2c1C(=O)c1ccccc1C2=O ... n
c1ccc(C2Nc3ccccc3C3OCCCC23)cc1 (stereo unspecified) ... n
C/C(=N\OCC(O)CNC(C)C)c1ccc2c(c1)NC(=O)CS2 (stereo unspecified) ... n
CC(=O)/C(=C\NC(=S)Nc1ccc(S(N)(=O)=O)cc1)C(=O)Nc1ccccc1C ... n
N/C(=N/O)c1cn(C2OC(CO)C(O)C2O)c2ncnc(NO)c12 (stereo unspecified) ... y
O=C(Nc1ccccc1)N1CC(CN2CCN(c3ccccc3)CC2)OC1=O (stereo unspecified) ... n
COC(=O)c1cccc2c1Oc1ccccc1S2 ... n
Cc1cccc(NC(=O)Cc2nc3ccccc3s2)c1C ... n
Cc1ccc(/C=N/NS(=O)(=O)c2ccccc2)c(C)c1 ... n
Nc1n[n+]2cc(-c3ccccc3)n(CC(=O)c3ccccc3)c2s1 ... n

Task item: Tell me the assay call for `O=C(c1ccccc1O)c1cc(-c2ncc3c(=O)c4ccccc4oc3n2)c(-c2ccccc2O)[nH]c1=O` please.
Reply: n

Task item: Tell me the assay call for COC(=O)[C@]1(C)CCC[C@]2(C)C3CC4OOC3(C=C4C(C)C)CCC21 (stereo partly specified) please.
Reply: n
